log10 of IC50 for assorted compounds
# TARGET_OR_SYSTEM: Beta-lactamase (Enterobacter cloacae, UniProt P05364)
# Sequence (P05364 whole entry): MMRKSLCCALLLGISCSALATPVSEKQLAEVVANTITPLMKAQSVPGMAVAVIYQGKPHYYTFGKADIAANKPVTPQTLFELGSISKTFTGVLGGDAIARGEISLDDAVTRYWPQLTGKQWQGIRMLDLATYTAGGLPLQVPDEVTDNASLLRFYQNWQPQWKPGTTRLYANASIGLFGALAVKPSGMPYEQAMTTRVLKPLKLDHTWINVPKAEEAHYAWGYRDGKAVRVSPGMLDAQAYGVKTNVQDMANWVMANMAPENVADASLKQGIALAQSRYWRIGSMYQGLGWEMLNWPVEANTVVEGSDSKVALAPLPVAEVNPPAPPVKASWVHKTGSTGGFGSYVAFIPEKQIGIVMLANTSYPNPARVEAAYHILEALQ
# TEST_METHOD_NOTES: Concentration required for its inhibitory activity against Enterobacter cloacae P99 class C beta-lactamase
Record value = log10 of IC50 given in µg/mL.

Ask: Dear colleague, I am looking for the recorded log10 of IC50 of the following compound: `CCCCCCCCCCCCCCCc1cccc(O)c1`
Result: 0.86

Ask: Moving on to the next compound: C=CC/C=C\C/C=C\CCCCCCCc1cccc(O)c1C(=O)O [ANACARDIC ACID]
Result: 0.15

Ask: Proceed to `CCC=CCC=CCC=CCCCCCCCc1cccc(O)c1C(=O)O`
Result: 1.23

Ask: // same read-out, input: `CCCCCCCCCCCCCCCc1cccc(O)c1O`
Result: 1.46

Ask: Try the compound `CC(C)CCCCCCCCCCCCCc1cccc(O)c1C(=O)O`
Result: 0.95

Ask: Subsequent entry: `CCCCCCCCCCc1cccc(O)c1`
Result: 0.65

* * *

# TARGET_OR_SYSTEM: Beta-lactamase pse-1 (Escherichia coli, UniProt Q2V0Y6)
# Sequence (Q2V0Y6 whole entry): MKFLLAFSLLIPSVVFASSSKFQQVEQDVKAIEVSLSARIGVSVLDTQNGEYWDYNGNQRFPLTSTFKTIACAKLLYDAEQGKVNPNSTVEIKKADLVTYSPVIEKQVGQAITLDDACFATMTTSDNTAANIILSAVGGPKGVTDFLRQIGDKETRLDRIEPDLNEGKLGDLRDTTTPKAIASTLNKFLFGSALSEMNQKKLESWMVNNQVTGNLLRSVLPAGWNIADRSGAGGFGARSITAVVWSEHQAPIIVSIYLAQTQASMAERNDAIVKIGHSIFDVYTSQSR
# TEST_METHOD_NOTES: Concentration required for its inhibitory activity against Escherichia coli K12(PSE4) class A beta-lactamase
Mark 1 for IC50 under 1 µg/mL, 0 if at or over.

                                 smi  assigned_class
0  CCCCCCCCCCCCCCCc1cccc(OC)c1C(=O)O               1

Ask: Bench note: check whether `CCC=CCC=CCC=CCCCCCCCc1cccc(O)c1C(=O)O` shows IC50 below 1 µg/mL
Result: 0

Ask: Try this compound too: `CCCCCCCCCCc1cccc(O)c1`
Result: 0

Ask: Now the same for `CCCCCCCCCCCCCCCc1cccc(O)c1`
Result: 0

Ask: Can you check `C=CC/C=C\C/C=C\CCCCCCCc1cccc(O)c1C(=O)O` next?
Result: 0

Ask: Likewise for `CCCCCCCCCCCCCCCCCc1cccc(O)c1C(=O)O` ?
Result: 1

Ask: What about `O=C(O)[C@H]1/C(=C/CO)O[C@@H]2CC(=O)N21` ?
Result: 1

Ask: And the next one, `CCCCCCCCc1cccc(O)c1C(=O)O` ?
Result: 0

* * *

# TARGET_OR_SYSTEM: Beta-lactamase TEM (Escherichia coli, UniProt P62593)
# Sequence (P62593 whole entry): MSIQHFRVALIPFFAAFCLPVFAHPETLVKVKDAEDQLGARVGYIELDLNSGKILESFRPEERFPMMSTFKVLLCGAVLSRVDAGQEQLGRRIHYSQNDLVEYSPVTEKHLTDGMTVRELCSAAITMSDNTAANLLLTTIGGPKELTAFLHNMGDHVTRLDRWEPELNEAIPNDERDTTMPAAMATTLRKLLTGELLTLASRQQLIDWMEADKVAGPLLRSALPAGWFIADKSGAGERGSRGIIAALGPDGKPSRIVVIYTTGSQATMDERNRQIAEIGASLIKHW
# TEST_METHOD_NOTES: Concentration required for its inhibitory activity against Escherichia coli JT4(TEM1) class A beta-lactamase
Quick rule for you: IC50 under 10 µg/mL gets true, anything else gets false.

Ask: Criterion: IC50 strictly below 10 µg/mL. Is it met by `CCCCCCCCCCc1ccccc1C(=O)O` ?
Result: false

Ask: Next molecule up: `CC(C)CCCCCCCCCCCCCc1cccc(O)c1C(=O)O`
Result: true

Ask: And what about the molecule `CCCCCCCCCCCCCCCc1cccc(OC)c1C(=O)O` ?
Result: true

Ask: Query `CCCCCCCCCCc1cccc(O)c1` next
Result: true

Ask: Same again, this time with `C=CC/C=C\C/C=C\CCCCCCCc1cccc(O)c1C(=O)O`
Result: true

Ask: // repeat for `CCCCCCCCCCCCCCCCCc1cccc(O)c1C(=O)O` and report
Result: true

Ask: Next: `CCCCCCCCCCc1cccc(O)c1C(=O)O`
Result: false
